# Test Details: Viability qHTS for spleen associated tyrosine kinase inhibitor (SYKi) drug resistant MV4-11 cells (AID 1963824); further: nearly all actives have a fitted effect of over 35% in size
# Condition Notes: SYKi-resistant MV4-11 viability, CellTiter-Glo, 72 h; series mostly up to 45 µM
Records with an inconclusive call do not appear. Activity calls are given as the source filed them. The call rests on the fitted dose curve; in most records, active means well fitted cell-killing curve with a large enough effect; inconclusive means small, poorly fitted or top-dose-only effect, or effect the other way; inactive means no such curve, though single readings can be large or run the other way.
Attribute Measured: outcome

>>> value_measured("CCN(Cc1cccnc1)C(=O)CN(c1ccc(OC)nc1)S(=O)(=O)c1ccccc1C")
"inactive"
>>> value_measured("COCC(c1ccc(C(F)(F)F)cc1)N1CCN(C2(C)CCN(C(=O)c3c(C)ncnc3C)CC2)CC1C (stereo not drawn)")
"inactive"
>>> value_measured("CC(C)C1CCC(C(=O)N[C@@H](Cc2ccccc2)C(=O)O)CC1 (stereo partly drawn)")
"inactive"

Entry source: PubChem BioAssay (NCATS)
